Data credit: patent US20240368139A1

System: H3K9me2 in HCT116 cells
Experiment: HCT116 H3K9me2 in-cell western assay
Format: cell-based
Details: Homo sapiens, HCT-116, 72 h, HCT116 cells, 72 hours incubation; read-out: H3K9me2 ICW IC50
pIC50: −log10 of the molar value.
Experimental readout: pIC50

molecule="CNc1cc(C)nc(Nc2cc3c(c(C4=CCNC(C)CC4)c2F)OCC3)n1 (centres unmarked) [Compound 202]" reported_result="> 7.00"
molecule=CCNc1cc(C)nc(Nc2cc3c(c(C4=CCNCCC4)c2)OCC3)n1 reported_result="6.30 to 7.00"
molecule="CNc1cc(C)nc(Nc2cc3c(c(C4=CCN(C)CC(O)C4)c2F)OCC3)n1 (centres unmarked) [Compound 180]" reported_result="> 7.00"

Kindly note the recorded pIC50 for "[2H]Cc1cc(NC)nc(Nc2cc3c(c(C4=CCNCCC4)c2)OCCO3)n1" , which is > 7.00

Kindly note the recorded pIC50 for CNc1cc(C)nc(Nc2cc3c(c(C4=CCN(C)C(C)CC4)c2F)OCC3)n1 (centres unmarked) , which is > 7.00
